Let's look at some compounds and their measured pEC50.
System: STAT1 (phosphorylated at Tyr701) in NCI-H1373 cells
Assay: Phospho-STAT1 (Tyr701) LANCE Ultra TR-FRET detection assay
Format: cell-based
Settings: Homo sapiens, NCI-H1373, 48 h, induction of pSTAT1 in NCI-H1373 cells, 48 hours incubation; normalized to 10 uM positive control and DMSO; 4-parameter fit; read-out: NH1373 pSTAT1 EC50
pEC50: −log10 of the molar value.
OBSERVED PROPERTY: pEC50

{"columns": ["COMPOUND", "TESTED TARGET", "OBSERVED PROPERTY", "EXPERIMENTAL RESULT"],
 "data": [
  ["CC(O)(c1cnc(-c2cc3ccn(C[C@@H]4CCC[C@H](Nc5cn[nH]c(=O)c5C(F)(F)F)C4)c(=O)c3c(F)c2F)nc1)C(F)F (stereo partly drawn)", "STAT1 (phosphorylated at Tyr701) in NCI-H1373 cells", "pEC50", 8.23],
  ["O=c1[nH]ncc(N[C@H]2CCC[C@@H](Cn3ccc4cc(-c5ncc6c(n5)NCCO6)c(F)cc4c3=O)C2)c1C(F)(F)F", "STAT1 (phosphorylated at Tyr701) in NCI-H1373 cells", "pEC50", 8.19],
  ["O=c1[nH]ncc(N[C@H]2CCO[C@@H](Cn3ccc4cc(-c5nc6ccccn6n5)c(F)c(F)c4c3=O)C2)c1C(F)(F)F", "STAT1 (phosphorylated at Tyr701) in NCI-H1373 cells", "pEC50", 7.69],
  ["O=c1[nH]ncc(N[C@H]2CCC[C@@](O)(Cn3ccc4cc(-c5ncc(C(F)(F)F)cn5)c(F)cc4c3=O)C2)c1C(F)(F)F", "STAT1 (phosphorylated at Tyr701) in NCI-H1373 cells", "pEC50", 8.73],
  ["O=c1[nH]ncc(N[C@H]2CCC[C@@H](Cn3cc(F)c4cc(-c5nc6ccccn6n5)c(F)cc4c3=O)C2)c1C(F)(F)F", "STAT1 (phosphorylated at Tyr701) in NCI-H1373 cells", "pEC50", 8.82],
  ["N#Cc1cnc(-c2cc3ccn(C[C@@H]4CCC[C@H](Nc5cn[nH]c(=O)c5C(F)(F)F)C4)c(=O)c3cc2F)nc1", "STAT1 (phosphorylated at Tyr701) in NCI-H1373 cells", "pEC50", 7.93],
  ["O=c1[nH]ncc(N[C@H]2CCC[C@@H](Cn3cc(Cl)c4cc(-c5ncc(C(F)F)cn5)c(F)c(F)c4c3=O)C2)c1C(F)(F)F", "STAT1 (phosphorylated at Tyr701) in NCI-H1373 cells", "pEC50", 8.87],
  ["O=c1[nH]ncc(N[C@H]2CCC[C@@H](Cn3cc(F)c4cc(-c5ncc(OCCO)cn5)c(F)c(F)c4c3=O)C2)c1C(F)(F)F", "STAT1 (phosphorylated at Tyr701) in NCI-H1373 cells", "pEC50", 8.38],
  ["O=C1c2cc(F)c(-c3ncc(C(F)F)cn3)cc2CCN1C[C@@H]1CCC[C@H](Nc2cn[nH]c(=O)c2C(F)(F)F)C1", "STAT1 (phosphorylated at Tyr701) in NCI-H1373 cells", "pEC50", 8.43],
  ["CC(C)(O)c1cnc(-c2cc3ccn(C[C@@H]4CCC[C@H](Oc5cn[nH]c(=O)c5C(F)(F)F)C4)c(=O)c3cc2F)nc1", "STAT1 (phosphorylated at Tyr701) in NCI-H1373 cells", "pEC50", 8.74],
  ["[2H]C([2H])([2H])Oc1cnc(-c2cc3c(F)cn(C[C@@H]4CCC[C@H](Oc5cn[nH]c(=O)c5C(F)(F)F)C4)c(=O)c3c(F)c2F)nc1", "STAT1 (phosphorylated at Tyr701) in NCI-H1373 cells", "pEC50", 8.91],
  ["O=c1[nH]ncc(O[C@H]2CCC[C@@H](Cn3cc(F)c4cc(-c5ncc(C(F)F)cn5)c(F)c(F)c4c3=O)C2)c1C(F)(F)F", "STAT1 (phosphorylated at Tyr701) in NCI-H1373 cells", "pEC50", 8.91],
  ["O=c1[nH]ncc(N[C@H]2CCC[C@@H](Cn3cc(F)c4cc(-c5ncc(OC(F)(F)F)cn5)c(F)cc4c3=O)C2)c1C(F)(F)F", "STAT1 (phosphorylated at Tyr701) in NCI-H1373 cells", "pEC50", 8.04],
  ["CC(C)(O)c1cnc(-c2cc3ccn(C[C@@H]4CCC[C@H](Nc5cn[nH]c(=O)c5C(F)(F)F)C4)c(=O)c3c(F)c2F)nc1", "STAT1 (phosphorylated at Tyr701) in NCI-H1373 cells", "pEC50", 8.49],
  ["[2H]C([2H])([2H])Oc1cnc(-c2cc3c(F)cn(C[C@@H]4CCC[C@H](Nc5cn[nH]c(=O)c5C(F)(F)F)C4)c(=O)c3c(F)c2F)nc1", "STAT1 (phosphorylated at Tyr701) in NCI-H1373 cells", "pEC50", 8.93],
  ["CS(=O)(=O)c1cnc(-c2cc3ccn(C[C@@H]4CCC[C@H](Nc5cn[nH]c(=O)c5C(F)(F)F)C4)c(=O)c3cc2F)nc1", "STAT1 (phosphorylated at Tyr701) in NCI-H1373 cells", "pEC50", 8.21],
  ["COc1nc(-c2cc3ccn(C[C@@H]4CCC[C@H](Nc5cn[nH]c(=O)c5C(F)(F)F)C4)c(=O)c3c(F)c2F)ncc1C#N", "STAT1 (phosphorylated at Tyr701) in NCI-H1373 cells", "pEC50", 8.62],
  ["CS(=O)(=O)c1cnc(-c2cc3c(F)cn(C[C@@H]4CCC[C@H](Nc5cn[nH]c(=O)c5C(F)(F)F)C4)c(=O)c3cc2F)nc1", "STAT1 (phosphorylated at Tyr701) in NCI-H1373 cells", "pEC50", 7.79]
]}
